system: HT29 colon; test: NCI-60 one-dose screen, 48 h (100 = growth as untreated, 0 = no growth, -100 = all killed); conditions: 10 µM unless noted
This is part of a sample that, as a whole, favours compounds with a hit. Of some 83,000 tested, about 20% had one in any assay.
QUANTITY_NAME: growth (%)
Note: unit % is implicit; provide only the numeric part.

The measured growth associated with Cc1cc2ncc(-c3cc4ccccc4c(N4CCN(C)CC4)n3)nc2cc1C reads -60.4

The measured growth associated with CC(C)(O)c1cncc(-c2ccc3ncnc(NCc4ccccc4)c3c2)c1 reads 96.7

The measured growth associated with COc1ccc(C(=O)CSc2nc3c(c(Nc4ccc(S(N)(=O)=O)cc4)n2)CCCC3)cc1 reads 96.4

The measured growth associated with CC1=NC2=NN3C(=NN2C(c2ccccc2)=C1)N=NC(c1ccc(Br)cc1)=C3c1ccc(Br)cc1 reads 105

The measured growth associated with C#Cc1nc(C(=O)NCCC(=O)Nc2ccc(NC(=O)c3ccc(/C=C/C(=O)c4nccn4C)cc3)cc2)cs1 reads 2.68

----------
System: PC-3 prostate
Assay: NCI-60 one-dose screen, 48 h (100 = growth as untreated, 0 = no growth, -100 = all killed)
Conditions: 10 µM unless noted
Description: Growth inhibition of the PC-3 human tumor cell line is measured as a screen for anti-cancer activity. Cells are grown in 96 well plates and exposed to the test compound for 48 hours. Compounds are tested at a single concentration, which is 10^-5 M for most compounds. The reported endpoint is percent growth (GI% or GIPRCNT), where numbers from 0 - 100% represent growth inhibition, and numbers from -100% - 0 represent cell death. For example, a value of 40 represents 60% growth inhibition. […]
This is part of a sample that, as a whole, favours compounds with a hit. Of some 83,000 tested, about 20% had one in any assay.
Could you mark each record condition met if its growth falls strictly under 30%, and condition not met if it equals or exceeds it?

Example entries and their recorded answers appear below.
- COMPOUND: "Cc1cc(C(NC(=O)CCCCCNc2cccc3c2C(=O)N(C2CCC(=O)NC2=O)C3=O)c2ccc3c(c2)OC(F)(F)O3)c(O)c2ncccc12 (configuration not stated)"
  QUALITATIVE_LABEL: "condition not met"
- COMPOUND: "C=C(C)[C@@H]1CC[C@]2(COP(=O)(OCC)OCC)CC[C@]3(C)[C@H](CC[C@@H]4[C@@]5(C)CCCNC(C)(C)[C@@H]5CC[C@]43C)[C@@H]12"
  QUALITATIVE_LABEL: "condition met"
- COMPOUND: "COc1ccc2[nH]cc(-c3csc4nc(-c5ccccc5)cn34)c2c1"
  QUALITATIVE_LABEL: "condition met"
- COMPOUND: "CCOC(=O)C1=NNC(c2ccc(Cl)cc2)C1C(=O)N1C(=S)NC(=O)C1CC(C)C (configuration not stated)"
  QUALITATIVE_LABEL: "condition not met"

# input Would you kindly verify if growth of Nc1cc(-c2c[nH]c3ccc(Br)cc23)nc2cc(-c3c[nH]c4ccc(Br)cc34)nn12 is strictly less than 30%?
# output condition met

# input Would you kindly verify if growth of Clc1cccc(/C=N/Nc2nc(N/N=C/c3cccc(Cl)c3Cl)nc(N3CCCCC3)n2)c1Cl is strictly less than 30%?
# output condition not met

# input Would you kindly verify if growth of C=C(C=O)[C@@H]1CC[C@]2(C)[C@H](C(=O)C=C3[C@H]4C[C@](C)(C(=O)OC)CC[C@]4(C)CC[C@]32C)[C@@]1(C)CCC#N is strictly less than 30%?
# output condition met
